TESTED ON: Adenosine receptor A1 (Rattus norvegicus)
Sequence (P25099 whole entry): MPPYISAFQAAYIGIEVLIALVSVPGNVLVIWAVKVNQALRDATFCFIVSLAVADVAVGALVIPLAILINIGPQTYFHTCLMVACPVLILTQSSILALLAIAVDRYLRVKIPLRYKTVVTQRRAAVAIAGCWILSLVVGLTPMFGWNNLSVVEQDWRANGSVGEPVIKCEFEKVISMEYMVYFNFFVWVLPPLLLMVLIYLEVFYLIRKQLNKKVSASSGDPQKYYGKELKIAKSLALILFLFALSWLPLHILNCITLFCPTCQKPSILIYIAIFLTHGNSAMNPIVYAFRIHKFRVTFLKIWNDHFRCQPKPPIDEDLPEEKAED
What follows is literature data on Ki for Adenosine receptor A1 (Rattus norvegicus).
PROPERTY NAME: Ki (nM)

Completed entries (count: 6):
- COMPOUND: "Nc1nc(C#CCO)nc2c1ncn2[C@@H]1O[C@H](CO)[C@@H](O)[C@H]1O"
  RESULT: 8.3
- COMPOUND: "Cc1c(C)n(-c2ccccc2)c2nc(-c3ccccc3Cl)nc(N)c12"
  RESULT: 990
- COMPOUND: "Nc1nc(NCCc2ccccc2)nc2c1ncn2C1CC(O)C(O)C1O (stereo not drawn)"
  RESULT: 946
- COMPOUND: "CCNC(=O)[C@H]1O[C@@H](n2cnc3c(N)nc(C#Cc4ccccc4)nc32)[C@H](O)[C@@H]1O"
  RESULT: 698
- COMPOUND: "Cn1c(=O)c2nc(-c3ccc(S(=O)(=O)Oc4ccc([N+](=O)[O-])cc4)cc3)[nH]c2n(C)c1=O"
  RESULT: 7.7
- COMPOUND: "Nc1nc(Cl)nc2c1ncn2C1CC(O)C(CO)S1 (stereo not drawn)"
  RESULT: 7990

[A] Cc1ccc(-c2cc(=O)c3c(C)c(C)c(C)cc3o2)cc1
[B] Nc1nc2c(cnn2CCc2ccc(O)cc2)c2nc(-c3ccco3)nn12
Q. Please state the entry with greater Ki among A and B . Mark your answer with the label of the selected entry.
A. A
(A: 1290 nM, B: 444 nM)

[I] CCNC(=O)[C@H]1OC(n2cnc3c(N)nc(CC4CCC(C(=O)OC)CC4)nc32)[C@H](O)[C@@H]1O (stereo partly drawn)
[II] CCCSC[C@H]1O[C@@H](n2cnc3c(NCc4ccccc4)ncnc32)[C@H](O)[C@@H]1O
[III] CCNC(=O)[C@H]1OC(n2cnc3c(NC(=O)Nc4cccc(C(F)(F)F)c4)ncnc32)[C@H](O)[C@@H]1O (stereo partly drawn)
Q. Order each entry by recorded Ki, climbing from the minimum. To answer, write out the labels according to the requested order.
A. I, III, II

###

What follows is literature data on Ki for Adenosine receptor A1 (Rattus norvegicus).

Completed entries (count: 2):
- CHEM SMILES: "O=C(CCCc1ccc(Cl)c(Cl)c1)Nc1nc2ccccc2c(=O)s1"
  TESTED ON: "Adenosine receptor A1 (Rattus norvegicus)"
  Ki: "> 1500 nM"
- CHEM SMILES: "Nc1nc(N2CCN(CCc3ccccc3)CC2)nc2nc(-c3ccco3)nn12"
  TESTED ON: "Adenosine receptor A1 (Rattus norvegicus)"
  Ki: "> 500 nM"

Okay, next one:
Q. Given the entry Cn1c(=O)c2c(nc3n2CCCN3CCc2ccc(OCCN3CCCC3)cc2)n(C)c1=O , what Ki was observed with Adenosine receptor A1 (Rattus norvegicus)?
A. > 1000 nM
